Entries and their measured % binding relative to control follow.
biological target: Telomere resolvase ResT (Borrelia burgdorferi (strain ATCC 35210 / B31 / CIP 102532 / DSM4680)) (UniProt O50979); experiment: Inhibition of Borrelia burgdorferi telomere resolvase 164-449 sequence assessed as inhibition of DNA binding activity at 10 uM by electrophoretic mobility shift assay; details: Borreliella burgdorferi
Sequence (O50979 whole entry): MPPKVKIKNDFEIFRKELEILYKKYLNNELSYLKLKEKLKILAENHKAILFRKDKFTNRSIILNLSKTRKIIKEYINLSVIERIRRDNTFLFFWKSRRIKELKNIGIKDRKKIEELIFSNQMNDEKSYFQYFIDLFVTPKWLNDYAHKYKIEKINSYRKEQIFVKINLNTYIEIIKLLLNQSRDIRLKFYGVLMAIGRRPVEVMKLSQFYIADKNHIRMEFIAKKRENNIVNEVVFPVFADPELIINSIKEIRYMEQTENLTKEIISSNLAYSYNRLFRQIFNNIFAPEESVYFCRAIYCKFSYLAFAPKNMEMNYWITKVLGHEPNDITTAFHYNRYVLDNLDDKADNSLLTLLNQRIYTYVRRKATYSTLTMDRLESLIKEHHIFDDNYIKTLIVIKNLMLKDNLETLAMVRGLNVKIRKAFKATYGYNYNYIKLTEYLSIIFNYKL
measureName: % binding relative to control (%)

O=C(O)c1ccc2c3c(cccc13)C(=O)N(c1ccc(-c3nc4ccc(N5C(=O)c6cccc7c(C(=O)O)ccc(c67)C5=O)cc4[nH]3)cc1)C2=O ... 16
O=C(O)c1ccc(-c2nc(-c3ccc(-c4ccccc4)cc3)c(-c3ccc(-c4ccccc4)cc3)[nH]2)cc1 ... 33
C[C@H](CCC(=O)O)[C@H]1CC[C@H]2[C@@H]3CC[C@@H]4CCCC[C@]4(C)[C@H]3CC[C@@]12C ... 14
O=C(O)CCCCCCCCCCCCC1C=CCC1 (centres undefined) ... 5

This collection of values is drawn from ChEMBL document CHEMBL1649208.
